- procedureDetails: in vivo
- Parameters: species or system mice
- experimentalContext: M-NSG, mouse, iv, 100 uCi, total radioactivity, % ID/g Bone
Non-standard residues stand in square brackets, D forms with d. Residues, ends and D or L forms follow the SMILES beside them. *: point of attachment. DOTA = O=C(O)CN1CCN(CC(=O)O)CCN(CC(=O)*)CCN(CC(=O)O)CC1; PEG4 = NCCOCCOCCOCCOCCC(=O)O; Aib = CC(C)(N)C(=O)O; AEA = NCCOCC(=O)O
Assign tissue uptake at 1 h to each entry below.
Report as a plain number; the unit %ID/g is understood.

Form field: reported tissue uptake at 1 h of CC[C@H](C)[C@H](NC(=O)[C@@H](NC(=O)[C@H](CC(=O)O)NC(=O)[C@H](CC(N)=O)NC(=O)[C@H](CC(=O)O)NC(=O)CNC(=O)[C@H](CCCNC(=N)N)NC(=O)CCOCCOCCOCCOCCNC(=O)CN1CCN(CC(=O)O)CCN(CC(=O)O)CCN(CC(=O)O)CC1)C(C)C)C(=O)N[C@@H](CC(N)=O)C(=O)O [^68Ga-TM7, metal not drawn] ({DOTA-PEG4}-RGDNDVIN-OH)
0.24

How about CC[C@H](C)[C@H](NC(=O)[C@@H](NC(=O)[C@H](CC(=O)O)NC(=O)[C@H](CC(N)=O)NC(=O)CCOCCOCCOCCOCCNC(=O)CN1CCN(CC(=O)O)CCN(CC(=O)O)CCN(CC(=O)O)CC1)C(C)C)C(=O)N[C@@H](CC(N)=O)C(=O)O [^68Ga-TM5, metal not drawn] ({DOTA-PEG4}-NDVIN-OH) ?
0.22

How about CC[C@H](C)[C@H](NC(=O)C(C)(C)NC(=O)[C@H](CC(=O)O)NC(=O)[C@H](CC(N)=O)NC(=O)CN1CCN(CC(=O)O)CCN(CC(=O)O)CCN(CC(=O)O)CC1)C(=O)N[C@@H](CC(N)=O)C(=O)O [^68Ga-TM11, metal not drawn] ({DOTA}-ND[Aib]IN-OH) ?
0.27

How about CC[C@H](C)[C@H](NC(=O)[C@@H](NC(=O)[C@H](CC(=O)O)NC(=O)[C@H](CC(N)=O)NC(=O)CN1CCN(CC(=O)O)CCN(CC(=O)O)CCN(CC(=O)O)CC1)C(C)C)C(=O)N[C@@H](CC(N)=O)C(=O)O [^68Ga-TM4, ^68Ga-DOTA-Asn-Asp-Val-Ile-Asn-OH, metal not drawn] ({DOTA}-NDVIN-OH) ?
0.3

How about CC[C@H](C)[C@H](NC(=O)[C@@H](NC(=O)[C@H](CC(=O)O)NC(=O)[C@H](CC(N)=O)NC(=O)COCCNC(=O)CN1CCN(CC(=O)O)CCN(CC(=O)O)CCN(CC(=O)O)CC1)C(C)C)C(=O)N[C@@H](CC(N)=O)C(=O)O [^68Ga-TM13, metal not drawn] ({DOTA-AEA}-NDVIN-OH) ?
0.13

---

- procedureDetails: in vivo
- Design: species or system mice
- experimentalContext: M-NSG, mouse, iv, 100 uCi, total radioactivity, % ID/g Muscle
- Description: For example, labeling TM4 with radioactive ^68Ga: An aqueous solution of TM4 (DOTA-Asn-Asp-Val-Ile-Asn-OH) (20 μg) was added to the prepared ^68GaCl3 solution, and the pH was adjusted to 3-5 with aqueous sodium acetate and acetic acid. This system was reacted at 70-95° C. for 15 min, and then purified after the reaction was completed to obtain a labeled solution of ^68Ga-DOTA-Asn-Asp-Val-Ile-Asn-OH (^68Ga-TM4). All compounds were labeled with ^68Ga in the same way as described above. […]
Residues, ends and D or L forms follow the SMILES beside them. *: point of attachment. DOTA = O=C(O)CN1CCN(CC(=O)O)CCN(CC(=O)*)CCN(CC(=O)O)CC1; PEG4 = NCCOCCOCCOCCOCCC(=O)O; AEA = NCCOCC(=O)O
Assign tissue uptake at 1 h to each entry below.
Report as a plain number; the unit %ID/g is understood.

Form field: reported tissue uptake at 1 h of CC[C@H](C)[C@H](NC(=O)[C@@H](NC(=O)[C@H](CC(=O)O)NC(=O)[C@H](CC(N)=O)NC(=O)[C@H](CC(=O)O)NC(=O)CNC(=O)[C@H](CCCNC(=N)N)NC(=O)CCOCCOCCOCCOCCNC(=O)CN1CCN(CC(=O)O)CCN(CC(=O)O)CCN(CC(=O)O)CC1)C(C)C)C(=O)N[C@@H](CC(N)=O)C(=O)O [^68Ga-TM7, metal not drawn] ({DOTA-PEG4}-RGDNDVIN-OH)
0.28

How about CC[C@H](C)[C@H](NC(=O)[C@@H](NC(=O)[C@H](CC(=O)O)NC(=O)[C@H](CC(N)=O)NC(=O)CN1CCN(CC(=O)O)CCN(CC(=O)O)CCN(CC(=O)O)CC1)C(C)C)C(=O)N[C@@H](CC(N)=O)C(=O)O [^68Ga-TM4, ^68Ga-DOTA-Asn-Asp-Val-Ile-Asn-OH, metal not drawn] ({DOTA}-NDVIN-OH) ?
0.36

How about CC[C@H](C)[C@H](NC(=O)[C@@H](NC(=O)[C@H](CC(=O)O)NC(=O)[C@H](CC(N)=O)NC(=O)COCCNC(=O)CN1CCN(CC(=O)O)CCN(CC(=O)O)CCN(CC(=O)O)CC1)C(C)C)C(=O)N[C@@H](CC(N)=O)C(=O)O [^68Ga-TM13, metal not drawn] ({DOTA-AEA}-NDVIN-OH) ?
0.23
